# IC50 per record follows
target: N-terminal active peptide segment (MI-N899) of POLQ with ATPase activity (Homo sapiens (Human), UniProt O75417)
Sequence (O75417 1-899 limits assumed): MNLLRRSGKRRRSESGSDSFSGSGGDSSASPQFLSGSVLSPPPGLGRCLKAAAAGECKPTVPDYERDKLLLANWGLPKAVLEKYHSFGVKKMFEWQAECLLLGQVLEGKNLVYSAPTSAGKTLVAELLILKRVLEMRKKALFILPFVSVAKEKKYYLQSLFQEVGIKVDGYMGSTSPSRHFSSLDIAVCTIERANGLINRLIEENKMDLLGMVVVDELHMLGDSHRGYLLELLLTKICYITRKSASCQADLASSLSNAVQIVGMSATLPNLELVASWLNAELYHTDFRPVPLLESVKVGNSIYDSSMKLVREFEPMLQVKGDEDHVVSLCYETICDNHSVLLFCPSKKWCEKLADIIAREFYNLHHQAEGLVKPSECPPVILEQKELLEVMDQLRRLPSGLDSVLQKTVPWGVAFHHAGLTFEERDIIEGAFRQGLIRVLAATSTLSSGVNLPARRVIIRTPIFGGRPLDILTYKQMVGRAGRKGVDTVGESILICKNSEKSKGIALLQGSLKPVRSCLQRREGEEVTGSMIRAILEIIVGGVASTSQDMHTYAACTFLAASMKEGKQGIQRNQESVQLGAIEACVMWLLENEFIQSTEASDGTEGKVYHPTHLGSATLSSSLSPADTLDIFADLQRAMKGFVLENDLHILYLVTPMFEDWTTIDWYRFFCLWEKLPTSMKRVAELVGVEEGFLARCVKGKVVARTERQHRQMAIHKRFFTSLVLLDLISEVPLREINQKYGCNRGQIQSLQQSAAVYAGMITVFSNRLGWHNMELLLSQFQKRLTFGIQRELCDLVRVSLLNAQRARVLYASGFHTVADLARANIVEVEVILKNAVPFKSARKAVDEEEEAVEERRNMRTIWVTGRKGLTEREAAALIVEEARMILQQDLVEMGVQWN

Some solved cases for reference:
COc1cnc(C)cc1-c1cc(C)ncc1C(=O)Nc1nc2ncc(-c3ccc(C(C)(C)C#N)cn3)nc2s1 = < 100 nM
COc1ccc(Cl)cc1-c1cc(C)ncc1C(=O)Nc1nc2ncc(-c3ccc(Cl)cn3)nc2s1 = < 100 nM
COc1ccc(Cl)cc1-c1cc(C)ncc1C(=O)Nc1nc2ncc(-c3ccc(C#N)cn3)nc2s1 = < 100 nM

Return value of IC50 for input `COc1ccc(C#N)cc1-c1cc(C)ncc1C(=O)Nc1nc2ncc(-c3ccc(Cl)cn3)nc2s1` , no commentary.
< 100 nM

====

Measured IC50 values are reported for all entries that follow.
target: N-terminal active peptide segment (MI-N899) of POLQ with ATPase activity (Homo sapiens (Human))

Examples from the recorded data:
COc1cnc(C)cc1-c1cc(C)ncc1C(=O)Nc1nc2ncc(-c3ccc(C4CC4)cc3)nc2s1 [Compound 82] = < 100 nM
COc1ccccc1-c1cn2ccnc2cc1C(=O)Nc1nc2ncc(-c3ccc(C#N)cc3)nc2s1 [Compound 41] = < 100 nM

Return IC50 for the following compound: COc1cc(C#N)ccc1-c1cnc2nc(NC(=O)c3ccncc3-c3ccccc3OC)sc2n1 [Compound 15]
< 100 nM

Read the entry COc1ccc(C#N)cc1-c1cc(C)ncc1C(=O)Nc1nc2ncc(-c3ccc(C#N)cc3)nc2s1 [Compound 58] and write its reported IC50.
< 100 nM

Values compiled from patent US20250122221A1.
